molecular target: Bloom's syndrome protein (BLM) helicase (Homo sapiens, UniProt P54132)
Sequence (P54132 642-1290): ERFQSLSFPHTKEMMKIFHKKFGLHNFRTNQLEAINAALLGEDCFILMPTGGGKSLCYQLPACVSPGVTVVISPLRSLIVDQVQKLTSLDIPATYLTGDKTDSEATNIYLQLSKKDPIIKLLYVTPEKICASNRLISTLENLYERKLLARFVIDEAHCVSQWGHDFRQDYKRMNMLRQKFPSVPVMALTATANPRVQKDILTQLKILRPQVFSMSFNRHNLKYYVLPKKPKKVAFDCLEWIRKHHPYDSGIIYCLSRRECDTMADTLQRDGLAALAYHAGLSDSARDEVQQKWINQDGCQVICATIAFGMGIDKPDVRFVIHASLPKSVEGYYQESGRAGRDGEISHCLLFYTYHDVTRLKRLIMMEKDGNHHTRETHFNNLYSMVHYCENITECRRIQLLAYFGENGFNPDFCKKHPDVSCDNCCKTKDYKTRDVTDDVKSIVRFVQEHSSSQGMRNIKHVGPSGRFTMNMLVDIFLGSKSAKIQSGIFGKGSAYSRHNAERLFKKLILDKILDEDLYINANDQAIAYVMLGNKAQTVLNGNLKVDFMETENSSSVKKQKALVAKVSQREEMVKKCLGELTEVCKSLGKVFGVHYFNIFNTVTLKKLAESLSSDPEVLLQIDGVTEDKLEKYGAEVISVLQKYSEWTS
MEASURE NAME: IC50

INSERT INTO assay_data (sample_smiles, measure_name, result) VALUES
  ('Cc1cc(C2(c3ccc(O)c(C)c3)OC(=O)c3ccccc32)ccc1O', 'IC50', '< 10 µM');

###

target: Bloom's syndrome protein (BLM) helicase (Homo sapiens, UniProt P54132); construct: BLM 642-1290; test: biochemical; set-up: fluorescence polarization; displacement of fluorescein-dsDNA bound to BLM642-1290; relative DNA binding activity; conditions: dsDNA binding; read-out: % of control remaining
MEASURE NAME: remaining activity at 10 µM

INSERT INTO results (compound, study_system, measure_name, result) VALUES
  ('CCCCC(OC(=O)c1ccc(N2C(=O)C3C4c5ccccc5C(c5ccccc54)C3C2=O)cc1)C(=O)c1ccc(-c2ccccc2)cc1 (stereo not drawn)', 'Bloom''s syndrome protein (BLM) helicase (Homo sapiens, UniProt P54132)', 'remaining activity at 10 µM', '103%'),
  ('Cc1ccc(-c2csc3nc(SCC(=O)Nc4cccc5ccccc45)n(-c4ccccc4)c(=O)c23)o1', 'Bloom''s syndrome protein (BLM) helicase (Homo sapiens, UniProt P54132)', 'remaining activity at 10 µM', '94.9%'),
  ('O=[N+]([O-])c1ccc(S(=O)(=O)Oc2ccc(C3(c4ccc(OS(=O)(=O)c5ccc([N+](=O)[O-])cc5)cc4)c4ccccc4-c4ccccc43)cc2)cc1', 'Bloom''s syndrome protein (BLM) helicase (Homo sapiens, UniProt P54132)', 'remaining activity at 10 µM', '98.9%');

###

Molecular target: Bloom's syndrome protein (BLM) helicase (Homo sapiens, UniProt P54132)
Construct: BLM 642-1290
Assay: biochemical
Design: fluorescence polarization; displacement of fluorescein-dsDNA bound to BLM642-1290; relative DNA binding activity
Conditions: dsDNA binding; read-out: % of control remaining
Protocol: First, fluorescein-labeled dsDNA (2 nM) was added into a reaction buffer (20 mM Tris, 25 mM NaCl, 3 mM MgCl2, 0.1 mM DTT, pH 7.9) to detect the fluorescence anisotropy until it was stable. Then, 500 nM BLM^642−1290 was added to equilibrate the DNA substrate, and the fluorescence anisotropy value was then detected. Finally, small molecules with a concentration of 10 μM were added, and the fluorescence anisotropy value was detected until it was stable. […]
MEASURE NAME: remaining activity at 10 µM (%)

INSERT INTO measurements (compound, study_system, quantitative_result) VALUES
  ('O=C1c2cc(S(=O)(=O)Nc3cccc4ccccc34)ccc2-c2ccc(S(=O)(=O)Nc3cccc4ccccc34)cc21 [compound 20]', 'Bloom''s syndrome protein (BLM) helicase (Homo sapiens, UniProt P54132)', 96.6),
  ('Cc1ccc(-c2csc3nc(SCC(=O)Nc4ccc(C)c(C)c4)n(-c4ccccc4)c(=O)c23)o1 [compound 19]', 'Bloom''s syndrome protein (BLM) helicase (Homo sapiens, UniProt P54132)', 93.9),
  ('CC(=O)Nc1ccc(N2C(=O)c3ccc(C(=O)c4ccc5c(c4)C(=O)N(c4ccc(NC(C)=O)cc4)C5=O)cc3C2=O)cc1 [compound 28]', 'Bloom''s syndrome protein (BLM) helicase (Homo sapiens, UniProt P54132)', 97.3),
  ('Cc1cc(C2(c3ccc(O)c(C)c3)OC(=O)c3ccccc32)ccc1O [compound 2]', 'Bloom''s syndrome protein (BLM) helicase (Homo sapiens, UniProt P54132)', 31.5);
